- Test system: Escherichia coli
- experiment: Inhibition of Escherichia coli DXR using DOXP as substrate assessed as conversion of NADPH to NADP at 500 uM preincubated for 5 mins
Please mark rule met if the recorded inhibition is equal to or greater than 0.2%, and rule not met if it falls below.

Consider the worked cases shown below.
# smiles.notation, target.desc, group
data = [
    ("CC(=O)c1sc(NC(=O)CP(=O)(O)O)nc1C", "Escherichia coli", "rule met"),
    ("CCOP(=O)(CC(=O)Nc1ccccn1)OCC", "Escherichia coli", "rule met"),
    ("CCOP(=O)(CC(=O)Nc1nccs1)OCC", "Escherichia coli", "rule met"),
    ("O=C(CP(=O)(O)O)Nc1ccon1", "Escherichia coli", "rule met"),
    ("O=C(CCP(=O)(O)O)NCc1ccco1", "Escherichia coli", "rule met"),
    ("O=C(CP(=O)(O)O)NCc1ccco1", "Escherichia coli", "rule met"),
]

Exercise: Hi team, for CC(=O)c1sc(NC(=O)CCP(=O)(O)O)nc1C , is the recorded inhibition at or above 0.2%?
Key: rule not met

Exercise: Quick check: does CCOP(=O)(CCC(=O)Nc1ccon1)OCC have inhibition greater than or equal to 0.2%?
Key: rule not met

Exercise: Does inhibition meet or surpass 0.2% for O=C(CCP(=O)(O)O)Nc1ccccn1 ?
Key: rule not met

Exercise: Reported inhibition reaches at least 0.2% for CCOP(=O)(CCC(=O)Nc1nc(C)c(C(C)=O)s1)OCC ?
Key: rule met

Exercise: Reported inhibition reaches at least 0.2% for CCOP(=O)(CCC(=O)Nc1nccs1)OCC ?
Key: rule not met
